# PROTOCOL_NOTES: Pharmacokinetics (PK) in Male Beagle Dogs
# Format: in vivo
# EXPERIMENTAL_CONTEXT: dog, 5 mg/kg IV, plasma, mean (Table 5)
VALUE_KIND: AUC(0-t) (ng·h/mL)
One number for each entry, in ng·h/mL.

Item CC(C)Oc1cc2nc([C@H]3CC[C@H](CN4CCC(c5ccc6c(c5)n(C)c(=O)n6C5CCC(=O)NC5=O)CC4)CC3)cn2cc1C(=O)Nc1cccn([C@H]2C[C@H]2F)c1=O (stereo partly shown) has what recorded AUC(0-t)?
2210

###

Could you please report measured DC50 for the items listed next?
# MEASURED_TARGET: IRAK4 (Homo sapiens, UniProt Q9NWZ3)
# Construct: 293Tcells expressing HiBiT-tagged IRAK4 were then added into 384-well plates
# Sequence (Q9NWZ3 whole entry): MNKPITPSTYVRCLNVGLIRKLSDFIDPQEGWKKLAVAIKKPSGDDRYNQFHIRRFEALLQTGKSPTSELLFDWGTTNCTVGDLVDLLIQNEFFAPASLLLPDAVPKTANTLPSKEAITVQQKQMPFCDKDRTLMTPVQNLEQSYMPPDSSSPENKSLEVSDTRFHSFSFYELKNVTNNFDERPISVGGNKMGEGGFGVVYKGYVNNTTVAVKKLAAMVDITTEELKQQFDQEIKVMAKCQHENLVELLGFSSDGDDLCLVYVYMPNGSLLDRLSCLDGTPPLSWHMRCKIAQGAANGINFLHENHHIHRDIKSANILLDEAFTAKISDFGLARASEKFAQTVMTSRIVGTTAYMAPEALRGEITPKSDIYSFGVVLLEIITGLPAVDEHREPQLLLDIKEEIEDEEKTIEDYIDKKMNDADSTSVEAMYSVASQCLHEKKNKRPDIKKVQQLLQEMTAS
# PROTOCOL_NOTES: IRAK4 Degradation Assay, HiBiT Method
# Assay type: cell-based
# EXPERIMENTAL_CONTEXT: 293T cells expressing HiBiT-tagged IRAK4, 6 hours

Below, 2 molecules whose answers are already recorded.
MOLECULE	VALUE_REPORTED
CC(C)Oc1cc2nc([C@H]3CC[C@H](CN4CCC(c5cc6c(cc5F)c(N5CCC(=O)NC5=O)nn6C)C(F)(F)C4)CC3)cn2cc1C(=O)Nc1cnn2cccnc12 (stereo partly drawn) [Example 170]	10 to 100 nM
CC(C)Oc1cc2nc(C3CCN(CC(=O)N4CCC(c5ccc(NC6CCC(=O)NC6=O)cc5)CC4)CC3)cn2cc1C(=O)Nc1cccc(C(F)(F)F)n1 (stereo not drawn) [Example 103]	10 to 100 nM

Item CC(C)Oc1cc2nn(C3CCN(C(=O)CN4CCC(c5ccc(NC6CCC(=O)NC6=O)cc5F)CC4)CC3)cc2cc1C(=O)Nc1cccc(C(F)F)n1 (stereo not drawn) [Example 64] has what recorded DC50?
500 to 1000 nM

###

Could you please report measured DC50 for the items listed next?
# MEASURED_TARGET: IRAK4 (Homo sapiens, UniProt Q9NWZ3)
# Construct: 293Tcells expressing HiBiT-tagged IRAK4 were then added into 384-well plates
# PROTOCOL_NOTES: IRAK4 Degradation Assay, HiBiT Method
# Type: cell-based
# EXPERIMENTAL_CONTEXT: 293T cells expressing HiBiT-tagged IRAK4, 6 hours
# Protocol: Assay 1. IRAK4 Degradation Assay, HiBiT Method Selected compounds were tested in an IRAK4 degradation assay using the HiBiT Method. Phenol red-free Dulbecco's modified Eagle medium (DMEM) and fetal bovine serum (FBS) were purchased from Gibco (Grand Island, NY, USA). […] IRAK4 degradation was measured via the quantification of luminescent signals using the Nano-Glo® HiBiT Lytic Assay kit. […] Luminescence was acquired using an EnVision™ Multilabel Reader (PerkinElmer, Santa Clara, CA, USA).

Below, 5 molecules whose answers are already recorded.
MOLECULE	DC50
CC(C)Oc1cc2nc([C@H]3CC[C@H](CN4CCC(c5ccc(NC6CCC(=O)NC6=O)cc5)CC4)CC3)cn2cc1C(=O)Nc1cccc(C(F)F)n1 (stereo partly drawn)	0.01 to 0.1 µM
CC(C)Oc1cc2nc(C3CCN(CC(=O)N4CCC(c5ccc(NC6CCC(=O)NC6=O)cc5)CC4)CC3)cn2cc1C(=O)Nc1cnn2cccnc12 (stereo not drawn)	< 0.01 µM
CC(C)Oc1cc2nn([C@H]3CC[C@H](CN4CC5(CCN(c6ncc(C7CCC(=O)NC7=O)cc6F)CC5)C4)CC3)cc2cc1C(=O)Nc1cccn(C2CC2)c1=O (stereo partly drawn)	< 0.01 µM
CC(C)Oc1cc2nc([C@H]3CC[C@H](CN(C)C4CCN(c5cccc(NC6CCC(=O)NC6=O)c5)CC4)CC3)cn2cc1C(=O)Nc1cccc(C(F)(F)F)n1 (stereo partly drawn)	0.5 to 1 µM
CC(C)Oc1cc2nc(C3CCN(CC(F)=C4CCN(c5ncc(C6CCC(=O)NC6=O)cc5F)CC4)CC3)cn2cc1C(=O)Nc1cccc(C(F)F)n1 (stereo not drawn)	0.01 to 0.1 µM

Now consider a different molecule.
Item CC(C)Oc1cc2nc(C3CCN(CC(=O)N4CCC(c5ccc(NC6CCC(=O)NC6=O)cc5)CC4)CC3)cn2cc1C(=O)Nc1ccc(F)cc1F (stereo not drawn) has what recorded DC50?
0.1 to 0.5 µM

###

# MEASURED_TARGET: IRAK4 (Homo sapiens)
# Construct: 293Tcells expressing HiBiT-tagged IRAK4 were then added into 384-well plates
# PROTOCOL_NOTES: IRAK4 Degradation Assay, HiBiT Method
# Assay type: cell-based
# EXPERIMENTAL_CONTEXT: 293T cells expressing HiBiT-tagged IRAK4, 6 hours
VALUE_KIND: DC50

Below, 2 compounds whose answers are already recorded.
COMPOUND	DC50
CC(C)Oc1cc2nc(C3CCN(C(=O)CC4CCN(c5ncc(NC6CCC(=O)NC6=O)cc5F)CC4)CC3)cn2cc1C(=O)Nc1cccc(C(F)F)n1 (stereo not drawn)	10 to 100 nM
CC(C)Oc1cc2nn(C3CCN(C(=O)N(C)C4CCN(c5ncc(C6CCC(=O)NC6=O)cc5F)CC4)CC3)cc2cc1C(=O)Nc1cccn([C@H]2C[C@H]2F)c1=O (stereo partly drawn)	10 to 100 nM

Item CO[C@H]1CN(C[C@H]2CC[C@H](n3cc4cc(C(=O)Nc5cccn([C@H]6C[C@H]6F)c5=O)c(OC(C)C)cc4n3)CC2)CC[C@H]1c1ccc2c(N3CCC(=O)NC3=O)nn(C)c2c1 has what recorded DC50?
< 10 nM

###

# PROTOCOL_NOTES: Pharmacokinetics (PK) in Male Beagle Dogs
# Format: in vivo
# EXPERIMENTAL_CONTEXT: dog, plasma, 10 mg/kg PO, mean (Table 6)
VALUE_KIND: bioavailability

Item CC(C)Oc1cc2nc([C@H]3CC[C@H](CN4CCC(c5ccc6c(c5)n(C)c(=O)n6C5CCC(=O)NC5=O)CC4)CC3)cn2cc1C(=O)Nc1cccn([C@H]2C[C@H]2F)c1=O (stereo partly shown) has what recorded bioavailability?
10.7%

###

# PROTOCOL_NOTES: Pharmacokinetics in Male Cynomolgus Monkeys
# Type: in vivo
# EXPERIMENTAL_CONTEXT: cynomolgus monkey, 5 mg/kg IV, plasma, mean (Table 11)
VALUE_KIND: clearance (mL/min/kg)
Give bare numbers, in mL/min/kg.

Item CC(C)Oc1cc2nc([C@H]3CC[C@H](CN4CCC(c5ccc6c(c5)n(C)c(=O)n6C5CCC(=O)NC5=O)CC4)CC3)cn2cc1C(=O)Nc1cccn([C@H]2C[C@H]2F)c1=O (stereo partly shown) has what recorded clearance?
17

###

# MEASURED_TARGET: IRAK4 (Homo sapiens, UniProt Q9NWZ3)
# Construct: 293Tcells expressing HiBiT-tagged IRAK4 were then added into 384-well plates
# PROTOCOL_NOTES: IRAK4 Degradation Assay, HiBiT Method
# Format: cell-based
# EXPERIMENTAL_CONTEXT: 293T cells expressing HiBiT-tagged IRAK4, 6 hours
Could you please report measured DC50 for the items listed next?

COMPOUND	MEASURED_TARGET	DC50
CC(C)Oc1cc2nc([C@H]3CC[C@H](CN4CCC(c5ccc6c(c5)n(C)c(=O)n6C5CCC(=O)NC5=O)CC4)CC3)cn2cc1C(=O)Nc1cccn(C2CC2)c1=O (some centres unmarked)	IRAK4 (Homo sapiens, UniProt Q9NWZ3)	< 10 nM
CC(C)Oc1cc2nn([C@H]3CC[C@H](CN4CCCC(c5ccc(OC6CCC(=O)NC6=O)cc5)C4)CC3)cc2cc1C(=O)Nc1cccn(C2CC2)c1=O (some centres unmarked)	IRAK4 (Homo sapiens, UniProt Q9NWZ3)	10 to 100 nM
CC(C)Oc1cc2nn([C@H]3CC[C@H](CN4CCC(c5cc6c(cc5F)c(N5CCC(=O)NC5=O)nn6C)CC4)CC3)cc2cc1C(=O)Nc1cccn([C@H]2C[C@H]2F)c1=O	IRAK4 (Homo sapiens, UniProt Q9NWZ3)	< 10 nM
CC(C)Oc1cc2nc([C@H]3CC[C@H](CN4CCC(c5cc6c(cc5F)c(N5CCC(=O)NC5=O)nn6C)C(F)(F)C4)CC3)cn2cc1C(=O)Nc1cccn([C@H]2C[C@H]2F)c1=O (some centres unmarked)	IRAK4 (Homo sapiens, UniProt Q9NWZ3)	10 to 100 nM

Now consider a different compound.
Item CC(C)Oc1cc2nc(C3CCN(C(=O)NC4CCN(c5ccc(C6CCC(=O)NC6=O)cn5)CC4)CC3)cn2cc1C(=O)Nc1cnn2cccnc12 (centres unmarked) has what recorded DC50?
< 10 nM

###

# PROTOCOL_NOTES: Pharmacokinetics in Male Cynomolgus Monkeys
# Type: in vivo
# EXPERIMENTAL_CONTEXT: cynomolgus monkey, plasma, 10 mg/kg PO, mean
VALUE_KIND: bioavailability (%)
Answers are plain numbers, in %.

Item CC(C)Oc1cc2nc([C@H]3CC[C@H](CN4CCC(c5ccc6c(c5)n(C)c(=O)n6C5CCC(=O)NC5=O)CC4)CC3)cn2cc1C(=O)Nc1cnn2cccnc12 (stereo partly shown) has what recorded bioavailability?
2.42
